- STUDY_TARGET: Recombinant human GR (Homo sapiens)
- Construct: purchased Panvera (Madison, Wis., USA); host or cells: baculovirus-infected insect Sf-9 cells
- Sequence (P04150 whole entry): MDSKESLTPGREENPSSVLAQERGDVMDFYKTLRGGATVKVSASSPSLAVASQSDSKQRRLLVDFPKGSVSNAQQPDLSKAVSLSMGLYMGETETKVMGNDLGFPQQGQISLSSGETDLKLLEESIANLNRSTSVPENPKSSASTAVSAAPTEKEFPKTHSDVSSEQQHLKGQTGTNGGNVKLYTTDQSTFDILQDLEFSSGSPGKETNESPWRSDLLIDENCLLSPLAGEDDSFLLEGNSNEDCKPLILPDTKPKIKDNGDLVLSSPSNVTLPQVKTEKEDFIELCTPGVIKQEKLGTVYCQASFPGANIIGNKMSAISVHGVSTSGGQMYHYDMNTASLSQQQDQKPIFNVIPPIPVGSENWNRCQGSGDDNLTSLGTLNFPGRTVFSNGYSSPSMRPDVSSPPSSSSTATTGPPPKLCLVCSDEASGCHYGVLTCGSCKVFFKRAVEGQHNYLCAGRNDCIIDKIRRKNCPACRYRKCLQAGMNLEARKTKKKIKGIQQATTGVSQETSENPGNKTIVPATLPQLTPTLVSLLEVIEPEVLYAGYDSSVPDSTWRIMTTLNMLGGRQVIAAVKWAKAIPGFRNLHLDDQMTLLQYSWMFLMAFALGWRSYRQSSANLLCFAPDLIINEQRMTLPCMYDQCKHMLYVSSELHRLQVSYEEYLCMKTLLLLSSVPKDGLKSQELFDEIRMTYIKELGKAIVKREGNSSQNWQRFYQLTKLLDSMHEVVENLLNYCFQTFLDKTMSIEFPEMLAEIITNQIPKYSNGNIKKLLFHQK
- MEASUREMENT_PROTOCOL: Glucocorticoid receptor binding, fluorescence polarisation with Fluormone-GS1
- EXPERIMENTAL_PARAMETERS: Fluormone-GS1 ligand, 1 hr at room temperature, Ki calculated from IC50 using the Cheng-Prussoff equation
- Protocol: Binding to the glucocorticoid receptor may be measured in the following assay: Recombinant human GR expressed in baculovirus-infected insect Sf-9 cells is obtained from Panvera (Madison, Wis., USA), as is GR assay buffer and the proprietary fluorescent ligand Fluormone™-GS1 (200 nM methanol solution). […] Curves are fitted using Origin™ software and Ki values were calculated using the Cheng-Prussoff equation. […]
EXPERIMENTAL_ENDPOINT: pKi
Answers are plain numbers, as −log10 of the molar value.

Recorded pKi, per entry:
MOLECULE	RESULT
CCCCN1C[C@@H]2CC3C4CCC5=CC(=O)C=C[C@]5(C)C4[C@@H](O)C[C@]3(C)[C@]2(C(=O)CO)O1 (stereo partly shown)	9.40
CCCN1C[C@@H]2CC3C4CCC5=CC(=O)C=C[C@]5(C)C4[C@@H](O)C[C@]3(C)[C@]2(C(=O)CO)O1 (stereo partly shown)	9.30
CN1C[C@@H]2CC3C4CCC5=CC(=O)C=C[C@]5(C)C4[C@@H](O)C[C@]3(C)[C@]2(C(=O)CO)O1 (stereo partly shown)	8.85

Kindly review the next molecule as well.
Could you share which pKi value was measured for C[C@]12C=CC(=O)C=C1CCC1C2[C@@H](O)C[C@@]2(C)C1C[C@H]1CN(C3CCCCC3)O[C@]12C(=O)CO (stereo partly shown) ?
9.70

Data provenance: patent US20070185172A1
